The molecules listed here are annotated with their TGI.
Test system: A549 NSCLC
Assay: NCI tumour cell line growth inhibition, 48 h

[
  {
    "molecule": "Cc1cc(C)n2c(-c3ccccc3)c(C)cc2n1",
    "assayedSystem": "A549 NSCLC",
    "TGI": "> 100 µM"
  },
  {
    "molecule": "CCC12CCCNC1c1c(n(C)c3ccccc13)C(C(=O)OC)C2 (stereo not given)",
    "assayedSystem": "A549 NSCLC",
    "TGI": "> 275 µM"
  },
  {
    "molecule": "COC(CC1(/C=C/O[Si](C(C)C)(C(C)C)C(C)C)C(=O)N(COCC[Si](C)(C)C)c2ccccc21)OC (stereo not given)",
    "assayedSystem": "A549 NSCLC",
    "TGI": "> 100 µM"
  },
  {
    "molecule": "CCOC(=O)C1C(c2ccc(O)c(OC)c2)c2c([nH][nH]c2=O)CC1(C)O (stereo not given)",
    "assayedSystem": "A549 NSCLC",
    "TGI": "> 100 µM"
  },
  {
    "molecule": "Cn1c(=O)c2ccc(-c3ccc(Br)cc3)nc2n(C)c1=O",
    "assayedSystem": "A549 NSCLC",
    "TGI": "> 100 µM"
  },
  {
    "molecule": "O=C(OC[C@H]1C[C@H]2C(=O)CCC[C@H]2O1)c1ccccc1",
    "assayedSystem": "A549 NSCLC",
    "TGI": "> 100 µM"
  },
  {
    "molecule": "COc1cccc(CCNc2c(C#N)c3nc4ccccc4n3c3ccccc23)c1",
    "assayedSystem": "A549 NSCLC",
    "TGI": "> 100 µM"
  },
  {
    "molecule": "CN(C)CCC(CCN(C)C)=NOC(=O)c1ccccc1",
    "assayedSystem": "A549 NSCLC",
    "TGI": "> 100 µM"
  },
  {
    "molecule": "COC(=O)C(CC(C)=O)CS(=O)(=O)CC(=O)C(=O)Nc1cccc([N+](=O)[O-])c1 (stereo not given)",
    "assayedSystem": "A549 NSCLC",
    "TGI": "> 100 µM"
  },
  {
    "molecule": "O=C(N=Nc1c(O)[nH]c2ccccc12)c1oc2ccccc2c1CN1CCN(c2ccccc2)CC1",
    "assayedSystem": "A549 NSCLC",
    "TGI": "8.21 µM"
  }
]

Numbers sourced from PubChem BioAssay (NCI).
